Assay: Toxicity liver stage against HepG2, at 10uM
Format: cell-based
Set-up: test concentration 10 uM, cell line HepG2-A16-CD81EGFP
Conditions: human, HepG2-A16-CD81EGFP cells; read-out: INHIBITION
Field: cytotoxicity at 10 µM. Provide a value for each of the compounds that follow.
Value and unit, in that order.

Given item CC(C)Oc1ncccc1CNC(=O)c1ccco1 , the value recorded as its cytotoxicity at 10 µM is 1.32%

So, O=C(Nc1cc(C(F)(F)F)c[nH]c1=O)N1CCSCC1 ? Its cytotoxicity at 10 µM was -5.1%

For each listed entry, give its cytotoxicity at 10 µM.
1. Cc1cc(CSc2nc(=O)ccn2C(C)C)no1
2. CC(C)n1ccc(-c2cc(C(=O)N3CCCC3)c3ccccn23)n1

14.9%
-2.7%

Data credit: ChEMBL document CHEMBL4513216
